Target: unrelated control antibody
Test: phage ELISA, 10^9 phagemid, wells coated with control mAb
Positions of bridges follow the written chain, without caps; N, C: chain ends. No end group written: not given here.
Mark Yes only for ELISA (absorbance units) (absorbance units) values smaller than 0.2; exact matches and larger values are No.

# example entries with known answers
Binder | Category
CSFFYSLCYCWCS (disulfide (positions not given here); also: disulfide pairing among 4 Cys not given here, displayed on phagemid) [phagemid CS1-31p, displayed peptide …] | Yes
CSFRYLWDQDRCS (disulfide 1-12 (inferred); also: displayed on phagemid) [phagemid CS1-6p, displayed peptide …] | Yes

Qu. Item CSGLYPWDYFMCS (disulfide 1-12 (inferred); also: displayed on phagemid) [phagemid CS1-29p, displayed peptide …] : ELISA (absorbance units) (absorbance units) beneath 0.2, strictly?
Ans. Yes

Qu. What would you report for CSFRYQWDMFRCS (disulfide 1-12 (inferred); also: displayed on phagemid) [phagemid CS1-11p, displayed peptide …] ?
Ans. No
